target: human Nav1.8 (hNav1.8) ion channel (Homo sapiens, UniProt Q9Y5Y9); construct: expressed in transfected cells; test: Inhibition of human Nav1.8 stably expressed in SH-SY-5Y cells (membrane potential dye fluorescence assay); assay type: cell-based; settings: Table 2 (compound numbers of the list in the description); SH-SY-5Y hNav1.8 cells, inhibition of membrane depolarisation, FLIPR membrane potential dye, 250 nM TTX, test concentration range 100 μM-0.05 μM; read-out: IC50
Sequence (Q9Y5Y9 whole entry): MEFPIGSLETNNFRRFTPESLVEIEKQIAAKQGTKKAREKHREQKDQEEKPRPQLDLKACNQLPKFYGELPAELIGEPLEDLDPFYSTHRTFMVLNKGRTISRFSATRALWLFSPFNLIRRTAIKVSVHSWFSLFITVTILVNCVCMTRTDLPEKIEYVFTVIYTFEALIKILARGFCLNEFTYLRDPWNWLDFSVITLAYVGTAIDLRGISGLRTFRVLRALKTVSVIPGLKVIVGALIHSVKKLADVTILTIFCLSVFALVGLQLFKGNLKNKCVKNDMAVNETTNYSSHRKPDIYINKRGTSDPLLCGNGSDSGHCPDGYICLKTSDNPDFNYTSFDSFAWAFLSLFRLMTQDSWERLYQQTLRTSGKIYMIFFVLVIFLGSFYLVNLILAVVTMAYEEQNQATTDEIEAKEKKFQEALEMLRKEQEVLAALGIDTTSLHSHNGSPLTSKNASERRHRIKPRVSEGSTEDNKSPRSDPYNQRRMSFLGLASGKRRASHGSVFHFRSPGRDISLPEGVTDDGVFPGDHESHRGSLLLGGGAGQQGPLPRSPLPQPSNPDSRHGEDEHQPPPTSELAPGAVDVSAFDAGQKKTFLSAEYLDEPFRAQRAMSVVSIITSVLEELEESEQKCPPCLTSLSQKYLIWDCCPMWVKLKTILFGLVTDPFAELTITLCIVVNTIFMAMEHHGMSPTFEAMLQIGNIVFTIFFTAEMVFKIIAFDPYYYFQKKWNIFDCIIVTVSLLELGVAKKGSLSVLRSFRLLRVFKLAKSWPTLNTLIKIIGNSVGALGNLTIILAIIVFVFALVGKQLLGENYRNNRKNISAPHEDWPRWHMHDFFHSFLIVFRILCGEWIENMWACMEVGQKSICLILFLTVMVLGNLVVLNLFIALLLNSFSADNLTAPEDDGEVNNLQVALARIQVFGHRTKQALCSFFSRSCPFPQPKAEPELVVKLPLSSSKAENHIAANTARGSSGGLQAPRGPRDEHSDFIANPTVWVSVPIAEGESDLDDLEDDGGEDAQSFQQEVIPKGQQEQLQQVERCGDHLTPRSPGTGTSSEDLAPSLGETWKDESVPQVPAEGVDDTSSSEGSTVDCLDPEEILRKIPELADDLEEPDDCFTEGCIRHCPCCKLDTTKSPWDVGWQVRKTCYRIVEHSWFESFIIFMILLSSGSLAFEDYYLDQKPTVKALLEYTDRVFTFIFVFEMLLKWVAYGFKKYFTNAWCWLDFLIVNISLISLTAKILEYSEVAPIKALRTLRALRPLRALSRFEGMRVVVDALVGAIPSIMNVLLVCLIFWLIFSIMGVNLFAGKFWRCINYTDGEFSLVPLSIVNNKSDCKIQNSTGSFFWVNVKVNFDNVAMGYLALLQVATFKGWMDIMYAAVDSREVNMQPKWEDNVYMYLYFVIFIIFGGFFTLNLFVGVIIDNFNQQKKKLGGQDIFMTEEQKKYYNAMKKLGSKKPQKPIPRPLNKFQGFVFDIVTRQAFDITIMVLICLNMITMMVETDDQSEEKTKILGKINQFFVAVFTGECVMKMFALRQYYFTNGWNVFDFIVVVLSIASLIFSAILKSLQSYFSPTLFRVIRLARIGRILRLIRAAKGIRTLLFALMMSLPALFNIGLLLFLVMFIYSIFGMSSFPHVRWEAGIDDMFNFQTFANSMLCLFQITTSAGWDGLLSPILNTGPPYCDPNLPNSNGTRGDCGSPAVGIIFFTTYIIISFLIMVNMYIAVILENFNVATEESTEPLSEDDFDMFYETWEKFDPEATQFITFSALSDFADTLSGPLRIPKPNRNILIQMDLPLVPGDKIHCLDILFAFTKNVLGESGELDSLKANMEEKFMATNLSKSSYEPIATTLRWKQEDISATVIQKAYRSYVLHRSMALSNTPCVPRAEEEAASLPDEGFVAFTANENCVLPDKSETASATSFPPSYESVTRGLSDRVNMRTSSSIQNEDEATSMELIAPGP
// boundary case: IC50 equal to 2 µM maps to 0.0; strictly smaller maps to 1.0

[
  {
    "compound": "CS(=O)(=O)N(c1cccc2c1CN(CC(=O)N1c3ccccc3Oc3ccccc31)CC2)S(C)(=O)=O",
    "assignedCategory": 0.0
  },
  {
    "compound": "O=C(CN1CCc2c(O)cccc2C1)N1c2ccccc2Oc2ccccc21",
    "assignedCategory": 1.0
  },
  {
    "compound": "COc1cc2c(cc1OC)CN(CC(=O)N1c3ccccc3S(=O)(=O)c3ccccc31)CC2",
    "assignedCategory": 0.0
  },
  {
    "compound": "CS(=O)(=O)Oc1cccc2c1CN(CC(=O)N1c3ccccc3Oc3ccccc31)CC2",
    "assignedCategory": 1.0
  },
  {
    "compound": "COc1ccc2c(c1)CCCN(C(=S)NC(c1ccccc1)c1ccccc1)C2",
    "assignedCategory": 0.0
  },
  {
    "compound": "COc1cccc2c1CN(CC(=O)n1c3ccccc3c3ccccc31)CC2",
    "assignedCategory": 0.0
  },
  {
    "compound": "CCOC(=O)C1CN(C(=O)CN2CCc3cccc(O)c3C2)c2ccccc2O1 (centres unmarked)",
    "assignedCategory": 1.0
  },
  {
    "compound": "COc1cccc2c1CN(CC(=O)N1Cc3ccccc3Oc3ccccc31)CC2",
    "assignedCategory": 1.0
  },
  {
    "compound": "COc1cccc2c1CN(CCCOC=C(c1ccccc1)c1ccccc1)CC2",
    "assignedCategory": 1.0
  },
  {
    "compound": "COc1cccc2c1CN(CC(=O)N1c3ccccc3OCC1c1ccc(NC(C)=O)cc1)CC2 (centres unmarked)",
    "assignedCategory": 0.0
  },
  {
    "compound": "O=C(CN1CCc2cccc(O)c2C1)N1c2ccccc2Sc2ccccc21",
    "assignedCategory": 1.0
  }
]

###

Quick list: pIC50 per entry.
target: human Nav1.8 (hNav1.8) ion channel (Homo sapiens); construct: expressed in transfected cells; experiment: Inhibition of human Nav1.8 stably expressed in SH-SY-5Y cells (membrane potential dye fluorescence assay); assay type: cell-based; settings: Table 2 (compound numbers of the list in the description); SH-SY-5Y hNav1.8 cells, inhibition of membrane depolarisation, FLIPR membrane potential dye, 250 nM TTX, test concentration range 100 μM-0.05 μM; read-out: IC50
pIC50: −log10 of the molar value.

[
  {
    "compound": "CSc1ccc2c(c1)N(C(=O)CN1CCc3cccc(O)c3C1)c1ccccc1S2",
    "pIC50": 5.34
  },
  {
    "compound": "COc1cccc2c1CN(CC(=O)N1c3ccccc3OCC1c1ccccc1)CC2 (stereo not drawn)",
    "pIC50": 5.66
  },
  {
    "compound": "COc1cc2c(cc1OC)CN(CC(=O)NN(c1ccccc1)c1ccccc1)CC2",
    "pIC50": 4.52
  },
  {
    "compound": "O=C(CN1Cc2ccccc2C1)NC(c1ccc(F)cc1)c1ccc(F)cc1",
    "pIC50": 4.99
  },
  {
    "compound": "COc1cccc2c1CN(CC(=O)N(c1ccccc1O)c1ncccc1N)CC2",
    "pIC50": 4.92
  },
  {
    "compound": "COc1cccc2c1CN(CCNC(=S)NCC(c1ccccc1)c1ccccc1)CC2",
    "pIC50": 6.36
  }
]
